TARGET: Serine/threonine-protein kinase PAK 5 (Homo sapiens) (UniProt Q9P286);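 further: values are mean percent inhibition of PAK5 from a kinase inhibitor set screen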
Sequence (Q9P286 whole entry, looked up): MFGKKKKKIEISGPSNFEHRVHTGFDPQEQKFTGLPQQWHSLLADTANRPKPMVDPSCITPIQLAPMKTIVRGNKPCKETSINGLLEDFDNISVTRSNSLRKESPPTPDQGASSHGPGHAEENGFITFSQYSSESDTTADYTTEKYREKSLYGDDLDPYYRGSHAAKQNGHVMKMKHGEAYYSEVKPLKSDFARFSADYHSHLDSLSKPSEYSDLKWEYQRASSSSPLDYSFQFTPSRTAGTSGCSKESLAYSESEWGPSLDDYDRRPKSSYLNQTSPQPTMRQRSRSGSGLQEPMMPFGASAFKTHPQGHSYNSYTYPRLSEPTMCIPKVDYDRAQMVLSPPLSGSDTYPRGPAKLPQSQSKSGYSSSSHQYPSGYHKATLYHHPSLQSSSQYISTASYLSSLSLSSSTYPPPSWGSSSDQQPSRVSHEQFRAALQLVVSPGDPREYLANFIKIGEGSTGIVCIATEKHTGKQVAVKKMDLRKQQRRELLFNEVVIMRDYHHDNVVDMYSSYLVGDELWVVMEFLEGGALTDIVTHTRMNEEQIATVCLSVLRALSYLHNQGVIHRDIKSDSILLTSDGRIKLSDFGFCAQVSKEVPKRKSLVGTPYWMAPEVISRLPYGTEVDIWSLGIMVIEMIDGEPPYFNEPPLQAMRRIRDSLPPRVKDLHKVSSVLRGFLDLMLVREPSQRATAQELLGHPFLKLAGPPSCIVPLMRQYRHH
CONDITION SET: at 0.1 µM
READOUT LABEL: inhibition (%)
Your answer should be a plain number; it is taken to be in %.

Param item = "Fc1ccc(-c2ncn(C3CCNCC3)c2-c2ccnc(Oc3ccc4c(c3)OCO4)n2)cc1" ; retrieve measured inhibition.
1.45

Same question for "NS(=O)(=O)c1ccc(Nc2cc(-c3ccc(O)c(F)c3)n[nH]2)cc1" please.
-6.87

Same question for "C[C@@H](Oc1cc(-n2cnc3ccc(OC4CCN(C)CC4)cc32)sc1C(N)=O)c1ccccc1Cl" please.
4.34

Same question for "CNC(=O)c1cncc(/C=C/c2c(C)cccc2C)c1" please.
7.14

Same question for "COc1cc2ncn(-c3cc(OCCc4ccccc4)c(C(N)=O)s3)c2cc1OC" please.
-3.93

Same question for "COc1cc(Nc2ncc3c(C)nc(-c4cccc(Oc5ccccc5)c4)n3n2)cc(OC)c1OC" please.
1.86

Same question for "FC(F)(F)c1cccc(Nc2nccc(-c3cnn4nc(-c5ccccc5)ccc34)n2)c1" please.
-0.43

Same question for "Cc1ccc(C(=O)NC(C)C)cc1-c1ccc(C(=O)NCC2CC2)cc1" please.
-4.56

Same question for "CN(c1ccc(NC(=O)Nc2c(Cl)cccc2Cl)cc1)c1ccnc(Nc2cccc(CS(C)(=O)=O)c2)n1" please.
4.31

Same question for "NC(=O)c1cc(-c2ccc(F)cc2)cc(-c2ccncc2)c1N" please.
-1.26

Same question for "O=C1Nc2ccc(I)cc2C1=Cc1cc(Br)c(O)c(Br)c1" please.
9.36

Same question for "Cc1ccc(C(=O)NC2CCC2)cc1-c1ccc(C(=O)NCC2CC2)cc1" please.
-0.72

Same question for "COc1cc(C)c(N(C)C(=O)CN(C)C)cc1Nc1nc(Nc2cccc(F)c2C(N)=O)c2cc[nH]c2n1" please.
1.86

Same question for "c1ccc(-c2n[nH]cc2-c2ccnc(-c3ccc(OCCN4CCOCC4)cc3)c2)nc1" please.
-6.65

Same question for "CCC(=O)Nc1ccc(C)c(-c2ccc(C(=O)NCC3CC3)cc2)c1" please.
-0.07

Same question for "CN(C)c1ccc2c(c1)/C(=C/Nc1ccc(S(N)(=O)=O)cc1)C(=O)N2" please.
-3.51

Same question for "Fc1ccc(-c2ncn(C3CCNCC3)c2-c2ccnc(Oc3ccc(F)c(F)c3)n2)cc1" please.
1.64

Same question for "CN(C)CCCNc1nccc(-c2c(-c3ccc(F)cc3)nn3cc(C(F)(F)F)ccc23)n1" please.
0.97

Same question for "C[C@@H](Oc1cc(-n2cnc3ccc(OCC4CCN(C)CC4)cc32)sc1C(N)=O)c1ccccc1Cl" please.
5.72

Same question for "Clc1ccc(CNc2nccc(-c3cnn4ncccc34)n2)cc1" please.
8.39

----------
TARGET: Aurora kinase B (Homo sapiens) (UniProt Q96GD4);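 further: reported values are averaged percent inhibition of Aurora B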
Sequence (Q96GD4 whole entry): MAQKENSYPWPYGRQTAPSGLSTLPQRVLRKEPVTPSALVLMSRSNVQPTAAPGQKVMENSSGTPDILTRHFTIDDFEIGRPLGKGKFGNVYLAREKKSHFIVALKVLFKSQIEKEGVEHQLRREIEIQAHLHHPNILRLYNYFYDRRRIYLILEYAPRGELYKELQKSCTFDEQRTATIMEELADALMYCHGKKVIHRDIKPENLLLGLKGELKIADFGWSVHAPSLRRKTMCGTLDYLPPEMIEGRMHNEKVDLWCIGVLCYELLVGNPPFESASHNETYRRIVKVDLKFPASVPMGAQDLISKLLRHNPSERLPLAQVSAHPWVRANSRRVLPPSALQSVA
CONDITION SET: at 0.1 µM
What inhibition was measured for each of the following?
Your answer should be a plain number; it is taken to be in %.

Param item = "COc1cc2ncn(-c3cc(OCCc4ccccc4)c(C(N)=O)s3)c2cc1OC" ; retrieve measured inhibition.
3.16

Same question for "COc1ccc(-c2ccc3c(NC(=O)C4CC4)n[nH]c3n2)cc1" please.
3.59

Same question for "CCC(=O)Nc1ccc(C)c(-c2ccc(C(=O)NCC3CC3)cc2)c1" please.
-0.16

Same question for "CN(c1ccc(NC(=O)Nc2c(Cl)cccc2Cl)cc1)c1ccnc(Nc2cccc(CS(C)(=O)=O)c2)n1" please.
76.4

Same question for "CCc1ccc(Oc2nccc(-c3c(-c4ccc(F)cc4)ncn3C3CCNCC3)n2)cc1" please.
3.48

Same question for "Cc1ccc(C(=O)NC(C)C)cc1-c1ccc(C(=O)NCC2CC2)cc1" please.
-0.47

Values were extracted from ChEMBL document CHEMBL1961873.
